assay comment: Single dose pharmacokinetics (PK) study in male Wister-Han rats
Assay type: in vivo, rat
condition details: rat, plasma, IV 2 mg/kg, read-out: Vss
In plain terms, low Vd, meaning strictly below 10 L/kg, gives Criterion met, and everything else gives Criterion not met.

| smi | category label |
| --- | --- |
| C[C@H]1CN(c2ccnc3c2cnn3C)Cc2ccc(N3CCNCC3)cc21 | Criterion not met |

Threshold test, Vd < 10 L/kg: `C[C@H]1CN(c2ccnc3c2cnn3C)Cc2ccc(OC[C@@H]3CNCCN3)cc21`
Criterion not met

Request: `CO[C@@H]1CN(c2ccc3c(c2)[C@@H](C)CN(c2ccnc4c2cnn4C)C3)C[C@H]1N`
Criterion met

Note, next up: `CO[C@@H]1CN(c2ccc3c(c2)[C@@H](C)CN(c2cc(C)nc4c2cnn4C)C3)C[C@H]1N`
Criterion met

Do the same for `CO[C@@H]1CN(c2ccc3c(n2)[C@@H](C)CN(c2cc(C)nc4c2cnn4C)C3)C[C@H]1N` please
Criterion met

* * *

tested system: hERG channel (Homo sapiens)
Construct: expressed in transfected cells; host or cells: CHO (CHOhERG)
Sequence (Q12809 whole entry): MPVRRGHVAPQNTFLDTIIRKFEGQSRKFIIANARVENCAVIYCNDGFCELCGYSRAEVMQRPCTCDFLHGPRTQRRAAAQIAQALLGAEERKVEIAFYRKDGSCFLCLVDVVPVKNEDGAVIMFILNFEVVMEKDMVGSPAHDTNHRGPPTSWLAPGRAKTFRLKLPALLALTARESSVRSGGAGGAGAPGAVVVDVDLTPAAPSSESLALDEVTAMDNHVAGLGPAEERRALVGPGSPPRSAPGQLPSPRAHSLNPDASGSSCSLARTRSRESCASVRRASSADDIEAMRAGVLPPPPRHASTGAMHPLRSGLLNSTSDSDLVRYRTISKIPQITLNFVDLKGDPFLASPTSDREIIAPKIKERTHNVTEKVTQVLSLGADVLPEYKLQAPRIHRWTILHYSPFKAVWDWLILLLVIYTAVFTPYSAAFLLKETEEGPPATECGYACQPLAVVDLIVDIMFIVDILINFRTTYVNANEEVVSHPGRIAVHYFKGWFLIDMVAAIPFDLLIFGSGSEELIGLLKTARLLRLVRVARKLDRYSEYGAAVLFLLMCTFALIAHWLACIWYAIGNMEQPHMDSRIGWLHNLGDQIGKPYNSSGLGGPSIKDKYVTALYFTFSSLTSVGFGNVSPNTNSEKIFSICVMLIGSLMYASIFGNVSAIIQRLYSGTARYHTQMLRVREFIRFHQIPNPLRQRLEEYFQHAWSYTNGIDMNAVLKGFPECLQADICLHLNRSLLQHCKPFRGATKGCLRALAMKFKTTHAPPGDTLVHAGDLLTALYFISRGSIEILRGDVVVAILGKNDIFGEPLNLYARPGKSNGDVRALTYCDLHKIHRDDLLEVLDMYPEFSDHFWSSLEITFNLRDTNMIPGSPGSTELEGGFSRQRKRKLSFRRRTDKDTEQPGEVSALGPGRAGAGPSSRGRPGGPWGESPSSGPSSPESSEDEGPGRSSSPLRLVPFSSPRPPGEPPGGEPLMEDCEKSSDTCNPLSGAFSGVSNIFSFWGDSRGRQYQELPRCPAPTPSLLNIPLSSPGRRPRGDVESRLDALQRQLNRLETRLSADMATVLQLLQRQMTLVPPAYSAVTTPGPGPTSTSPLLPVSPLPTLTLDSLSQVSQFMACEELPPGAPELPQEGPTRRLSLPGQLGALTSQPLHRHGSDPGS
assay comment: hERG channel inhibition assay (patch-clamp, CHOhERG cells)
Assay type: cell-based
condition details: safety ratio, hERG IC20 over HEK/hTLR8 IC50
measurement kind: hERG IC20/TLR8 IC50

Consider the reported hERG IC20/TLR8 IC50 for these compounds:
| compound | hERG IC20/TLR8 IC50 |
| --- | --- |
| C[C@H]1CN(c2ccnc3c2cnn3C)Cc2ccc(N3CC4(CCNCC4)CC3=O)cc21 [Example 16] | >2500.0 |
| C[C@H]1CN(c2ccnc3c2cnn3C)Cc2ccc(OC[C@H]3CNCCN3)cc21 [Example 18] | >2500.0 |
| C[C@H]1CN(c2ccnc3c2cnn3C)Cc2ccc(OC3CN(C4CCNCC4)C3)cc21 [Example 41] | 637.5 |

Observed hERG IC20/TLR8 IC50 on hERG channel (Homo sapiens) for Cc1cc(N2Cc3cnc(N4CC[C@@H](N)[C@H](F)C4)cc3[C@@H](C)C2)c2cnn(C)c2n1 [Example 80] , please.
>294.1

* * *

assay comment: Human microsome stability assay
Type: in vitro ADME
condition details: 1 μM test compound, 0.5 mg/mL liver microsomal protein, 37° C., pH 7.4
Please use t whenever Clearance of Human microsome is not below 7 mL/min/kg, and f whenever it is.

Look over these answered cases.
| compound | category label |
| --- | --- |
| Cc1cc(N2Cc3ccc(OC[C@@H]4CNCCN4)cc3[C@@H](C)C2)c2cnn(C)c2n1 | t |
| C[C@H]1CN(c2ccnc3c2cnn3C)Cc2ccc(N3CCNCC3)cc21 | f |
| C[C@H]1CN(c2ccnc3c2cnn3C)Cc2ccc(N3CCN(CCN(C)C)CC3)cc21 | f |
| C[C@H]1CN(c2ccnc3c2cnn3C)Cc2ccc(N3C[C@@H](N)[C@H](O)C3)cc21 | f |
| Cc1cc(N2Cc3ccc(N4CCN(C)CC4)nc3[C@@H](C)C2)c2cnn(C)c2n1 | t |
| C[C@H]1CN(c2ccnc3c2cnn3C)Cc2ccc(N3CCC(N4CC(N)C4)CC3)cc21 | f |

Evaluate `C[C@H]1CN(c2ccnc3c2cnn3C)Cc2ccc(N3CC4(CNCCO4)C3)cc21` : Clearance of Human microsome at minimum 7 mL/min/kg?
t

Okay, and `C[C@H]1CN(c2ccnc3c2cnn3C)Cc2ccc(OCCN3CCNCC3)cc21` ?
f

How about `C[C@H]1CN(c2ccnc3c2cnn3C)Cc2ccc(N3CCN(C(=O)C4CCNCC4)CC3)cc21` ?
t

What do you have for `Cn1ncc2c(N3CCc4cc(N5CCNCC5)ccc4C3)ccnc21` ?
t

And for `C[C@H]1CN(c2ccnc3c2cnn3C)Cc2ccc(OC3CN(C4CCNCC4)C3)cc21` ?
f
